# target_of_assay: mouse transferrin receptor (mTfR) (Mus musculus, UniProt Q62351 89-763)
# Sequence (Q62351 89-763): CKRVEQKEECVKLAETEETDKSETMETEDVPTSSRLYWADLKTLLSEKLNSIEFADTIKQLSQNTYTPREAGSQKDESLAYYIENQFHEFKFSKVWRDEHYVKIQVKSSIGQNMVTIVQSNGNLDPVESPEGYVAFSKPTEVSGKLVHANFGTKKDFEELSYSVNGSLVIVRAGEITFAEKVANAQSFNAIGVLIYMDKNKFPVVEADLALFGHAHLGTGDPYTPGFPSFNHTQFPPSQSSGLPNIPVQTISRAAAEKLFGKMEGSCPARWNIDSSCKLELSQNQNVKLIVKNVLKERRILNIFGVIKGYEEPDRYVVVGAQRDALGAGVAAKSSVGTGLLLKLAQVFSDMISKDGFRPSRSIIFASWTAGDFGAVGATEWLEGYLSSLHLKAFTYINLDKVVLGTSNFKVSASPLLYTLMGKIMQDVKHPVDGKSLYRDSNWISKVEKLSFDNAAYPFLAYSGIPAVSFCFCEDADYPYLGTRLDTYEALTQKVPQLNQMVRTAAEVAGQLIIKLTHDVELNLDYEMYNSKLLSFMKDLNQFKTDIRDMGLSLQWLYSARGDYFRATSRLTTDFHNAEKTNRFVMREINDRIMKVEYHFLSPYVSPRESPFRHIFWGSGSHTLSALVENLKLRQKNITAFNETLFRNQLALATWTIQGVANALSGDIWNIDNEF
# protocol_text: fluorescence anisotropy

>  <binder>
CACTTAGTATCGCTACGTTCTTTGGTTCCGTTCGG (structured_DNA, 5' amino C6 linker) [GS24min]

>  <Kd [nM]>
1200

$$$$
